Test system: luciferase (Luc) mRNA
Assay Summary: Luc expression, whole body bioluminescence after intravenous administration to mice
Type: in vivo
Measurement Setup: mice, intravenous, 0.5 mg/kg (mRNA dose)
Measured Property: luciferase activity relative to MC3 LNP control

Short answer on luciferase (Luc) mRNA for CCCCCCCCCOC(=O)CCCCCCCN(CCO)CCCCCCCC(=O)OC(CCCCCCCC)CCCCCCCC , luciferase activity relative to MC3 LNP control: 3 fold

----------
Assay Summary: Clinical chemistry and hematology in rat, 2 mpk i.v., 48 h
Format: in vivo
Measurement Setup: intravenous, 48 h post dose
Give True when the value for Concentration Neutrophils is at least 3000. Give False when it is less.

Previously resolved entries follow.
[
  {
    "Compound": "CCCCCCCCCCCOC(=O)CCCCCN(CCO)CCCCCCCC(=O)OC(CCCCCCCC)CCCCCCCC",
    "Class Assignment": "False"
  },
  {
    "Compound": "CCCCCCCCCOC(=O)CCCCCCCN(CCO)CCCCCCCOC(=O)C(CCCCCCCC)CCCCCCCC",
    "Class Assignment": "True"
  },
  {
    "Compound": "CCCCC/C=C\\C/C=C\\CCCCCCCCC(CCCCCCCC/C=C\\C/C=C\\CCCCC)OC(=O)CCCN(C)C [MC3, DLin-MC3-DMA, reference compound]",
    "Class Assignment": "True"
  },
  {
    "Compound": "CCCCCCCCCN(CCO)CCCCCCCC(=O)OC(CCCCCCCC)CCCCCCCC",
    "Class Assignment": "True"
  }
]

Next up:
State whether the measured Concentration Neutrophils reaches 3000, counting equality as reaching it, for CCCCCC/C=C\COC(=O)CCCCCCCN(CCO)CCCCCCCC(=O)OC(CCCCCCCC)CCCCCCCC
False

Taken from patent US12263248B2.
